Listed below: pIC50 values for each entry.
# assayedSystem: HCV NS3 protease (UniProt P26663)
# Sequence (P26663 1027-1206, other chains not shown): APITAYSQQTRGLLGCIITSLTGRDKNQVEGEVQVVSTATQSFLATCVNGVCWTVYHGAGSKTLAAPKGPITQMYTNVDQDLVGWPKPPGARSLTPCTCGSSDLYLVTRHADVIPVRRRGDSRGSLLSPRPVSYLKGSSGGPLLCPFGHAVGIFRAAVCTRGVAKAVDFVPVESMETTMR
# Format: biochemical, HCV genotype 1b
# Parameters: rows headed: IC50 (μM); IC50 (μM)
# conditionsUsed: Table 8
pIC50: −log10 of the molar value.

compound: C=CC1CC1(NC(=O)C1CC(Oc2cc(-c3ccccc3)nc3cc(OC)ccc23)CN1C(=O)C(NC(=O)NCC)C(C)(C)C)C(=O)O (stereo not drawn) [compound 816]
pIC50: 7.49
//
compound: C=CC1CC1(NC(=O)C1CC(Oc2cc(-c3ccccc3)nc3cc(OC)ccc23)CN1C(=O)C(NC(=O)OC1CCCCC1)C(C)(C)C)C(=O)O (stereo not drawn) [compound 868]
pIC50: 7.52
//
compound: C=CC1CC1(NC(=O)C1CC(Oc2cc(-c3ccc(Cl)cc3)nc3cc(OC)ccc23)CN1C(=O)C(NC(=O)OC(C)(C)C)C(C)(C)C)C(=O)O (stereo not drawn) [compound 811]
pIC50: 7.40
//
compound: C=CC1CC1(NC(=O)C1CC(Oc2cc(-c3ccc(OC)cc3)nc3cc(OC)ccc23)CN1C(=O)C(NC(=O)NC(C)(C)C)C(C)(C)C)C(=O)O (stereo not drawn) [compound 844]
pIC50: 8.22
//
compound: C=CC1CC1(NC(=O)C1CC(Oc2cc(-c3ccccc3)nc3cc(OC)ccc23)CN1C(=O)C(Nc1ccc(CC#N)cc1)C(C)C)C(=O)O (stereo not drawn) [compound 856]
pIC50: 6.96
//
compound: C=CC1CC1(NC(=O)C1CC(Oc2cc(-c3ccccc3)nc3cc(OC)ccc23)CN1C(=O)C(CC(C)(C)C)NC(=O)OC(C)(C)C)C(=O)O (stereo not drawn) [compound 849]
pIC50: 6.96
//
compound: C=CC1CC1(NC(=O)C1CC(Oc2cc(-c3ccccc3)nc3cc(OC)ccc23)CN1C(=O)C(Nc1ccc([N+](=O)[O-])cc1)C(C)C)C(=O)O (stereo not drawn) [compound 836]
pIC50: 6.89
//
compound: C=CC1CC1(NC(=O)C1CC(Oc2cc(-c3ccccc3)nc3cc(OC)ccc23)CN1C(=O)C(NC(=O)NC(C)(C)COC)C(C)(C)C)C(=O)O (stereo not drawn) [compound 857]
pIC50: 7.96
//
compound: C=CC1CC1(NC(=O)C1CC(Oc2cc(-c3ccccc3)nc3cc(OC)ccc23)CN1C(=O)C(NC(=O)NC(C)(C)C)C(C)(C)C)C(=O)O (stereo not drawn) [compound 801]
pIC50: 8.22
//
compound: C=CC1CC1(NC(=O)C1CC(Oc2cc(-c3ccccc3)nc3cc(OC)ccc23)CN1C(=O)C(Nc1ccc2ccccc2c1)C(C)C)C(=O)O (stereo not drawn) [compound 863]
pIC50: 6.52
//
compound: C=CC1CC1(NC(=O)C1CC(Oc2cc(-c3ccccc3)nc3cc(OC)ccc23)CN1C(=O)C(Nc1ccc([N+](=O)[O-])c(C(F)(F)F)c1)C(C)C)C(=O)O (stereo not drawn) [compound 819]
pIC50: 6.49
//
compound: C=CC1CC1(NC(=O)C1CC(Oc2cc(-c3ccccc3)nc3cc(OC)ccc23)CN1C(=O)C(NC(=O)NC(C)(CC)CC)C(C)(C)C)C(=O)O (stereo not drawn) [compound 871]
pIC50: 7.96

###

# assayedSystem: HCV NS3 protease (UniProt P26663)
# Type: biochemical, HCV genotype 1b
# Set-up: rows headed: IC50 (μM); IC50 (μM)
# conditionsUsed: Table 8
just bin them by IC50: range A (below 60 nM), range B (60 nM to below 100 nM), range C (100 nM or more)

compound: C=CC1CC1(NC(=O)C1CC(Oc2cc(-c3ccccc3)nc3cc(OC)ccc23)CN1C(=O)C(NC(=O)NC(C)C(C)(C)C)C(C)(C)C)C(=O)O (centres unmarked) [compound 872]
assignedLabel: range A
--
compound: C=CC1CC1(NC(=O)C1CC(Oc2cc(-c3ccccc3)nc3cc(OC)ccc23)CN1C(=O)C(NC(=O)OC(C)(C)C)C(C)OCc1ccccc1)C(=O)O (centres unmarked) [compound 853]
assignedLabel: range C
--
compound: C=CC1CC1(NC(=O)C1CC(Oc2cc(-c3ccccc3)nc3cc(OC)ccc23)CN1C(=O)C(Nc1ccc(F)cc1)C(C)C)C(=O)O (centres unmarked) [compound 840]
assignedLabel: range B
--
compound: C=CC1CC1(NC(=O)C1CC(Oc2cc(-c3ccccc3)nc3cc(OC)ccc23)CN1C(=O)C(NC(=O)NC(C)C(C)(C)C)C(C)(C)C)C(=O)O (centres unmarked) [compound 873]
assignedLabel: range A
--
compound: C=CC1CC1(NC(=O)C1CC(Oc2cc(-c3ccccc3)nc3cc(OC)ccc23)CN1C(=O)C(NC(=O)OC1CCOC1)C(C)(C)C)C(=O)O (centres unmarked) [compound 867]
assignedLabel: range A
--
compound: C=CC1CC1(NC(=O)C1CC(Oc2cc(-c3ccccc3)nc3cc(OC)ccc23)CN1C(=O)C(NC(=O)Nc1c(C)cccc1C)C(C)(C)C)C(=O)O (centres unmarked) [compound 829]
assignedLabel: range A
--
compound: C=CC1CC1(NC(=O)C1CC(Oc2cc(-c3ccccc3)nc3cc(OC)ccc23)CN1C(=O)C(NC(=O)OC(C)(C)C)C(C)OC(C)(C)C)C(=O)O (centres unmarked) [compound 850]
assignedLabel: range B
--
compound: C=CC1CC1(NC(=O)C1CC(Oc2cc(-c3ccccc3)nc3cc(OC)ccc23)CN1C(=O)C(Nc1cccc(C)c1)C(C)C)C(=O)O (centres unmarked) [compound 834]
assignedLabel: range B
--
compound: C=CC1CC1(NC(=O)C1CC(Oc2cc(-c3ccccc3)nc3cc(OC)ccc23)CN1C(=O)C(NC(=O)NC(C)C)C(C)(C)C)C(=O)O (centres unmarked) [compound 807]
assignedLabel: range A
--
compound: C=CC1CC1(NC(=O)C1CC(Oc2cc(-c3ccccc3)nc3cc(OC)ccc23)CN1C(=O)C(NC(C)=O)C(C)(C)C)C(=O)O (centres unmarked) [compound 805]
assignedLabel: range B
--
compound: C=CC1CC1(NC(=O)C1CC(Oc2cc(-c3ccccc3)nc3cc(OC)ccc23)CN1C(=O)C(NC1CCCCC1)C(C)C)C(=O)O (centres unmarked) [compound 859]
assignedLabel: range C
--
compound: C=CC1CC1(NC(=O)C1CC(Oc2cc(-c3ccccc3C)nc3cc(OC)ccc23)CN1C(=O)C(NC(=O)OC(C)(C)C)C(C)(C)C)C(=O)O (centres unmarked) [compound 841]
assignedLabel: range C
--
compound: C=CC1CC1(NC(=O)C1CC(Oc2cc(-c3ccccc3)nc3cc(OC)ccc23)CN1C(=O)C(NC(=S)NC1CCCCC1)C(C)(C)C)C(=O)O (centres unmarked) [compound 818]
assignedLabel: range A
--
compound: C=CC1CC1(NC(=O)C1CC(Oc2cc(-c3ccccc3)nc3cc(OC)ccc23)CN1C(=O)C(Nc1cccc(OC)c1)C(C)C)C(=O)O (centres unmarked) [compound 821]
assignedLabel: range C
--
compound: C=CC1CC1(NC(=O)C1CC(Oc2cc(-c3ccccc3)nc3cc(OC)ccc23)CN1C(=O)C(NC(=O)NN(C)C)C(C)(C)C)C(=O)O (centres unmarked) [compound 827]
assignedLabel: range C
--
compound: C=CC1CC1(NC(=O)C1CC(Oc2cc(-c3ccccc3)nc3cc(OC)ccc23)CN1C(=O)C(NCc1ccccc1)C(C)C)C(=O)O (centres unmarked) [compound 826]
assignedLabel: range C
--
compound: C=CC1CC1(NC(=O)C1CC(Oc2cc(-c3ccccc3)nc3cc(OC)ccc23)CN1C(=O)C(Nc1ccc(N)c(C(F)(F)F)c1)C(C)C)C(=O)O (centres unmarked) [compound 820]
assignedLabel: range B
--
compound: C=CC1CC1(NC(=O)C1CC(Oc2cc(-c3ccccc3)nc3cc(OC)ccc23)CN1C(=O)C(NC(=O)NC1CCCCC1)C(C)(C)C)C(=O)O (centres unmarked) [compound 808]
assignedLabel: range A
--
compound: C=CC1CC1(NC(=O)C1CC(Oc2cc(-c3ccccc3)nc3cc(OC)ccc23)CN1C(=O)C(NC(=O)NC(C)(C)C(N)=O)C(C)(C)C)C(=O)O (centres unmarked) [compound 833]
assignedLabel: range A
--
compound: C=CC1CC1(NC(=O)C1CC(Oc2cc(-c3ccccc3)nc3cc(OC)ccc23)CN1C(=O)C(Nc1cccc(CO)c1)C(C)C)C(=O)O (centres unmarked) [compound 838]
assignedLabel: range B
--
compound: C=CC1CC1(NC(=O)C1CC(Oc2cc(-c3ccccc3)nc3cc(OC)ccc23)CN1C(=O)C(Nc1cc(F)cc(F)c1)C(C)C)C(=O)O (centres unmarked) [compound 862]
assignedLabel: range C
